subject_of_test: furin, P09958
Sequence (P09958 whole entry): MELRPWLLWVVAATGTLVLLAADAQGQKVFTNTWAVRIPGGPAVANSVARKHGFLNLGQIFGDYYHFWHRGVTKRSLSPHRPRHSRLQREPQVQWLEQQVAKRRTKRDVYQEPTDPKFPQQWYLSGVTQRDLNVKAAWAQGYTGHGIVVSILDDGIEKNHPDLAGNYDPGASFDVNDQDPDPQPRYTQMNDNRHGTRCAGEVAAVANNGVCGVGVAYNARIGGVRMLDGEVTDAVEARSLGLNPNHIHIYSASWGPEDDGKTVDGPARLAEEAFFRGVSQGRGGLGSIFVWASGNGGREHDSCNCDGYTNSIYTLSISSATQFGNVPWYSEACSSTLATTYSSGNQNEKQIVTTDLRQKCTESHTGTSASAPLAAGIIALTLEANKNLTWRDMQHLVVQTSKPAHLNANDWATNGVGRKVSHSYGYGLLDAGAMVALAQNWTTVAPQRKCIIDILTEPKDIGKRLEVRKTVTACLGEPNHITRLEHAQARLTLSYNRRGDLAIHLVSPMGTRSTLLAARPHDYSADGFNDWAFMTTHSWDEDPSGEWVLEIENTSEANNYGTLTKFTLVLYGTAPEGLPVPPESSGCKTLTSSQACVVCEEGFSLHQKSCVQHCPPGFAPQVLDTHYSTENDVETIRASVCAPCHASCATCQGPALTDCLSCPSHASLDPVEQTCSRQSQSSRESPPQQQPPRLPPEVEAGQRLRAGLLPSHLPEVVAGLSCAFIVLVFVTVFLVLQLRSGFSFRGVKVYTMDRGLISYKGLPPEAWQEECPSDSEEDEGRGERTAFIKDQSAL
assay_details: furin cleavage Z-score vs untreated control; higher = more cleavage, active = 3.5 or more, inactive = 1 or less, 8 variable residues between constant flanks;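 further: purified furin at 1:10 enzyme:substrate in 50 mM HEPES pH 7.5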
condition_summary: 15 min
The other results are listed elsewhere or left out. No count for the full screen is at hand.
Classes used: True (active), False (inactive)

CARQQRDEETAGNASASA [FS-2401] | False
CAVGCCSMSYAGNASASA [HC2016] | False
CARKKRQLYSAGNASASA [FS-2967] | True
CARDRRAAGSAGNASASA [FS-1946] | True
CAEACSLTPPAGNASASA [HC1414] | False
CARHLRSAGSAGNASASA [FS-1896] | False
CARNGRWEESAGNASASA [FS-3005] | False
CAALSRVRRAAGNASASA [FS-973] | True
CAREKRSEYSAGNASASA [FS-1852] | True
CARKFRSGLIAGNASASA [FS-2152] | False
CARKKRFVSSAGNASASA [FS-2213] | True
CARHRRATGAAGNASASA [FS-2944] | True
CALTQRTARAAGNASASA [FS-59] | True
